# method: Cytotoxicity against BALB mouse 3T3 cells
# Assay type: cell-based
# applied.conditions: BALB 3T3 cells
# GI50 annotations
Reply with just the number (in µM).

Solved entries:
mol | metric | reported.measurement
Fc1ccc(/C=N/Nc2ncnc3sc4c(c23)CCCC4)cc1 | GI50 | 20.5
C(=N\Nc1ncnc2sc3c(c12)CCCC3)/c1ccc[nH]1 | GI50 | 2.2
COc1ccc(/C=N/Nc2ncnc3sc4c(c23)CCCC4)c(OC)c1 | GI50 | 19.9
FC(F)(F)c1ccccc1/C=N/Nc1ncnc2sc3c(c12)CCCC3 | GI50 | 15.8
COc1cc(/C=N/Nc2ncnc3sc4c(c23)CCCC4)cc(OC)c1O | GI50 | 27.3

Query :: Please give the measured GI50 for this molecule: CCC(CC)=NNc1ncnc2sc3c(c12)CCCC3
Result :: 4.8

Query :: Cool, now CC(C)c1ccc(/C=N/Nc2ncnc3sc4c(c23)CCCC4)cc1
Result :: 9.4

Query :: Cool, now COc1cc(/C=N/Nc2ncnc3sc4c(c23)CCCC4)cc(OC)c1OC
Result :: 22.5

Query :: Cool, now Clc1ccc(/C=N/Nc2ncnc3sc4c(c23)CCCC4)cc1
Result :: 18.7

Query :: Cool, now CC(C)(C)c1ccc(/C=N/Nc2ncnc3sc4c(c23)CCCC4)cc1
Result :: 23.2

Query :: Cool, now Brc1ccccc1/C=N/Nc1ncnc2sc3c(c12)CCCC3
Result :: 11.2
